# TEST_SYSTEM: hVEGFR1-ECD (Homo sapiens, UniProt P17948)
# Construct: purchased R&D Systems, Abingdon, UK
# Type: binding
# CONDITION_LABEL: divalent cations, VEGF-A/hVEGFR1 interaction
EXPERIMENTAL_READOUT: effect on the competition assay (in words)

- SMILES_TEXT: "[Co+2]"
  EXPERIMENTAL_RESULT: "little"
- SMILES_TEXT: "[Mn+2]"
  EXPERIMENTAL_RESULT: "no effect"
- SMILES_TEXT: "[Fe+2]"
  EXPERIMENTAL_RESULT: "no effect"
- SMILES_TEXT: "[Cd+2]"
  EXPERIMENTAL_RESULT: "little"

---

# TEST_SYSTEM: hVEGFR1-ECD (Homo sapiens, UniProt P17948)
# Construct: purchased R&D Systems, Abingdon, UK
# Assay type: binding
# CONDITION_LABEL: biotinylated VEGF-A165 displaced by 30 μM of metal on whole ECD (d1-d7) of VEGFR1; 1% DMSO
EXPERIMENTAL_READOUT: % displacement at 30 μM

Reference set, count: 6
- COMPOUND: "O=S(=O)([O-])[O-].[Ni+2] [NiSO4]"
  % displacement at 30 μM: "75 ± 1%"
- COMPOUND: "O=S(=O)([O-])[O-].[Na+].[Na+] [Na2SO4]"
  % displacement at 30 μM: "0%"
- COMPOUND: "O=S(=O)([O-])[O-].[Mn+2] [MnSO4]"
  % displacement at 30 μM: "0%"
- COMPOUND: "O=S(=O)([O-])[O-].[Co+2] [CoSO4]"
  % displacement at 30 μM: "44 ± 1%"
- COMPOUND: "O=S(=O)([O-])[O-].[Fe+2] [FeSO4]"
  % displacement at 30 μM: "13 ± 5%"
- COMPOUND: "O=S(=O)([O-])[O-].[Zn+2] [ZnSO4]"
  % displacement at 30 μM: "61 ± 2%"

input: For O=S(=O)([O-])[O-].[Cu+2] [CuSO4] , what is its reported % displacement at 30 μM?
output: 83 ± 8%

---

# TEST_SYSTEM: hVEGFR1-ECD (Homo sapiens)
# Construct: purchased R&D Systems, Abingdon, UK
# Type: binding
# CONDITION_LABEL: concentration displacing 50% of biotinylated VEGF-A165 binding on VEGFR1 (ECD); read-out: IC50 [95% CI]
EXPERIMENTAL_READOUT: log10 of IC50 (log10 of the value in nM)
Transform log10 | Measure IC50 | Unit nM

Reference set, count: 7
- SMILES_TEXT: "[Cl][Pd][Cl]"
  TEST_SYSTEM: "hVEGFR1-ECD (Homo sapiens)"
  log10 of IC50: 2.40
- SMILES_TEXT: "O=S(=O)([O-])[O-].[Zn+2]"
  TEST_SYSTEM: "hVEGFR1-ECD (Homo sapiens)"
  log10 of IC50: 3.77
- SMILES_TEXT: "CC(=O)[O-].CC(=O)[O-].[Cu+2]"
  TEST_SYSTEM: "hVEGFR1-ECD (Homo sapiens)"
  log10 of IC50: 3.12
- SMILES_TEXT: "CC(=O)[O-].CC(=O)[O-].[Pd+2]"
  TEST_SYSTEM: "hVEGFR1-ECD (Homo sapiens)"
  log10 of IC50: 2.56
- SMILES_TEXT: "O=S(=O)([O-])[O-].[Cu+2]"
  TEST_SYSTEM: "hVEGFR1-ECD (Homo sapiens)"
  log10 of IC50: 2.99
- SMILES_TEXT: "[Cl][Cu][Cl]"
  TEST_SYSTEM: "hVEGFR1-ECD (Homo sapiens)"
  log10 of IC50: 3.10
- SMILES_TEXT: "[Cl][Cd][Cl]"
  TEST_SYSTEM: "hVEGFR1-ECD (Homo sapiens)"
  log10 of IC50: 4.68

Could you now look at the following compound, please?
input: For `O=S(=O)([O-])[O-].[Ni+2]` , what is its reported log10 of IC50?
output: 3.55

---

# TEST_SYSTEM: hVEGFR1-ECD (Homo sapiens, UniProt P17948)
# Construct: purchased R&D Systems, Abingdon, UK
# Format: binding
# CONDITION_LABEL: biotinylated VEGF-A165 displaced by 30 μM of metal on whole ECD (d1-d7) of VEGFR1; 1% DMSO
EXPERIMENTAL_READOUT: % displacement at 30 μM (%)
Please state the figure in %; there is no need to write the unit.

Reference set, count: 4
- SMILES_TEXT: "CC(=O)[O-].CC(=O)[O-].[Pd+2]"
  % displacement at 30 μM [%]: 97
- SMILES_TEXT: "[Cl][Cd][Cl]"
  % displacement at 30 μM [%]: 38
- SMILES_TEXT: "CC(=O)[O-].CC(=O)[O-].[Cu+2]"
  % displacement at 30 μM [%]: 69
- SMILES_TEXT: "[Cl][Cu][Cl]"
  % displacement at 30 μM [%]: 87

input: For `[Cl][Pd][Cl]` , what is its reported % displacement at 30 μM?
output: 93

FYI, the data here is from paper PMC5152890.
